Cited source: patent US10842758B1

Assay: Plasma pharmacokinetic profile of cannabidiol after a single topical dose (In-life Study 1901002-01, LC-MS/MS)
Assay type: in vivo, CD-1 mice
Conditions: CD-1, topical or ocular; Group 2: AEM.CBD.007 Formulation B 2.5% CBD, single topical dose 0.1 mL, mean dose 76.61 mg/kg, mouse plasma
reported-metric: Tmax
Lab note: write values as number then unit, every time.

## Task Give the reported value of Tmax for this record: C=C(C)[C@@H]1CCC(C)=C[C@H]1c1c(O)cc(CCCCC)cc1O [Cannabidiol]
## Result 2 h

###

Assay: Plasma pharmacokinetic profile of cannabidiol after a single topical dose (In-life Study 1901002-01, LC-MS/MS)
Assay type: in vivo, CD-1 mice
Conditions: CD-1, topical or ocular; Group 2: AEM.CBD.007 Formulation B 2.5% CBD, single topical dose 0.1 mL, mean dose 76.61 mg/kg, mouse plasma
reported-metric: half-life

## Task Complete the entry with half-life for C=C(C)[C@@H]1CCC(C)=C[C@H]1c1c(O)cc(CCCCC)cc1O
## Result 1.7 h

###

Test: Plasma pharmacokinetic profile of cannabidiol after a single topical dose (In-life Study 1901002-01, LC-MS/MS)
Type: in vivo, CD-1 mice
Conditions: CD-1, topical or ocular; Group 3: KBM.CBD.010 Formulation C 5% CBD, single topical dose 0.1 mL, mean dose 155.24 mg/kg, mouse plasma
reported-metric: Cmax (ng/mL)
Give a bare numeral; the unit ng/mL is implied.

## Task Answer with the recorded Cmax for the compound listed here: C=C(C)[C@@H]1CCC(C)=C[C@H]1c1c(O)cc(CCCCC)cc1O [Cannabidiol]
## Result 602

###

Assay: Plasma pharmacokinetic profile of cannabidiol after a single topical dose (In-life Study 1901002-01, LC-MS/MS)
Format: in vivo, CD-1 mice
Conditions: CD-1, topical or ocular; Group 1: AEM.CBD.006 Formulation A 2.5% CBD, single topical dose 0.1 mL, mean dose 78.69 mg/kg, mouse plasma
reported-metric: half-life
Could you give the number and then its unit, please?

## Task Answer with the recorded half-life of C=C(C)[C@@H]1CCC(C)=C[C@H]1c1c(O)cc(CCCCC)cc1O only.
## Result 1.78 h

###

Assay: Plasma pharmacokinetic profile of cannabidiol after a single topical dose (In-life Study 1901002-01, LC-MS/MS)
Format: in vivo, CD-1 mice
Details: CD-1, topical or ocular; Group 3: KBM.CBD.010 Formulation C 5% CBD, single topical dose 0.1 mL, mean dose 155.24 mg/kg, mouse plasma
reported-metric: AUC(0-t) (µg·h/mL)
Number in µg·h/mL, nothing else.

## Task Output AUC(0-t) of C=C(C)[C@@H]1CCC(C)=C[C@H]1c1c(O)cc(CCCCC)cc1O
## Result 3.07

###

Test: Plasma pharmacokinetic profile of cannabidiol after a single topical dose (In-life Study 1901002-01, LC-MS/MS)
Format: in vivo, CD-1 mice
Details: CD-1, topical or ocular; Group 4: KBM.CBD.011 Formulation C 2.5% CBD, single topical dose 0.1 mL, mean dose 75.76 mg/kg, mouse plasma
reported-metric: Tmax (h)
Give the value in h but do not write h after it.

## Task Recall and state the measured Tmax for C=C(C)[C@@H]1CCC(C)=C[C@H]1c1c(O)cc(CCCCC)cc1O .
## Result 1

###

Test: Plasma pharmacokinetic profile of cannabidiol after a single topical dose (In-life Study 1901002-01, LC-MS/MS)
Type: in vivo, CD-1 mice
Conditions: CD-1, topical or ocular; Group 1: AEM.CBD.006 Formulation A 2.5% CBD, single topical dose 0.1 mL, mean dose 78.69 mg/kg, mouse plasma
reported-metric: AUC(0-inf) (ng·h/mL)
# value in ng·h/mL; strip the unit string

## Task Look up AUC(0-inf) of C=C(C)[C@@H]1CCC(C)=C[C@H]1c1c(O)cc(CCCCC)cc1O and report it.
## Result 1860
